- Test system: HEP-G2 cells
- ASSAY_NAME: cells
- PROTOCOL_CONDITIONS: Homo sapiens, HepG2, read-out: HEP-G2 Emax (% of FCCP), HEP-G2 cells, maximal stimulation relative to FCCP
ENDPOINT_LABEL: Emax
The reply should read as a number followed by its unit.

Please review the entries below; each comes with its answer.
COMPOUND	Emax
CC(C)(C)c1cc(/C=C(\C#N)c2ccccn2)cc(C(C)(C)C)c1O	80%
Cc1c(Cl)cc(C(C)(C)C)c(O)c1C(=O)Nc1cc(C(F)(F)F)cc(C(F)(F)F)c1	75%
CCOC(=O)/C(C#N)=C(/C)c1cc(C(C)(C)C)c(O)c(C(C)(C)C)c1	100%
N#CC(C#N)=Cc1c[nH]c2ccc(Br)cc12	65%
Cc1c(Br)cc(C(C)(C)C)c(O)c1C(=O)Nc1ccc(Cl)cc1Cl	90%
COc1ccc(O)c([N+](=O)[O-])c1	35%
Cc1cc(C(C#N)c2ccc(Cl)cc2)c(Cl)cc1NC(=O)c1c(C)c(Br)cc(C(C)(C)C)c1O (centres unmarked)	100%
Cc1c(Br)cc(C(C)C)c(O)c1C(=O)Nc1ccc([N+](=O)[O-])cc1Cl	103%
CCc1cc(C#N)cc2c(C)c(C)[nH]c12	100%
Cc1c(Br)cc(C(C)(C)C)c(O)c1C(=O)Nc1ccc(C#N)cc1Cl	100%

Note: attention shifts to another entry.
Prompt line: Notebook: pull reported Emax for HEP-G2 cells, entry "CC(C)(C)c1cc(C(=O)Nc2ccc([N+](=O)[O-])cc2Cl)c(O)c(C(C)(C)C)c1"
Response line: 105%
